target_of_assay: sodium-proton exchanger of subtype 3 (NHE3) (Homo sapiens)
Construct: expressed in transfected cells
Sequence (P48764 26-834, species assumed): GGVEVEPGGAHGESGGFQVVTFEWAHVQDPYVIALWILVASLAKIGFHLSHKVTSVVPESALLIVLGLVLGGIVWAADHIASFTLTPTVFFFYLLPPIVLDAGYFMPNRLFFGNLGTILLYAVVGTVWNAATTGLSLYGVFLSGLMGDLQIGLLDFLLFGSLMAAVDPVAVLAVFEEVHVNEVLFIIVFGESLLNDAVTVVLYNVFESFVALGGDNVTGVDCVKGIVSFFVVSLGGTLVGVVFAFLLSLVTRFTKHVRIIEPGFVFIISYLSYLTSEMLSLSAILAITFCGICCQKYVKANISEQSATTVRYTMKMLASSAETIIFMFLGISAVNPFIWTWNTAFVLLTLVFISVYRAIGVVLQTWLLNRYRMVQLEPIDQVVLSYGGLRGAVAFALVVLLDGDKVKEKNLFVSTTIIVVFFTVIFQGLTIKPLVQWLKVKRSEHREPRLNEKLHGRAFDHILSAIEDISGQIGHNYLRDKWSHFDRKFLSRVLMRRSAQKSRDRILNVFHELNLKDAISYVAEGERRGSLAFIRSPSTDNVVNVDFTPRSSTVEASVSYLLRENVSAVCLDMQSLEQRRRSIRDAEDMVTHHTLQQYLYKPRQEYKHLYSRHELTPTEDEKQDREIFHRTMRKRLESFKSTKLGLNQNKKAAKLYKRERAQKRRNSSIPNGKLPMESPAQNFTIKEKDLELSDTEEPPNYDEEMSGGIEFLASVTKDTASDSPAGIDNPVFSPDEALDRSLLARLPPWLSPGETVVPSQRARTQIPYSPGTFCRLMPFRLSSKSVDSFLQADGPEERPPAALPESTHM
experimental_protocol: Recovery of intracellular pH (pHi) after acidification in LAP1 cells stably expressing NHE3 (BCECF fluorescence, FLIPR)
Type: cell-based
condition_notes: LAP1 cells stably expressing NHE3; pH recovery after acidification; range 1 is % inhibition at 10 μM; read-out: Activity range (inhibitory effect on NHE3)
experimental_readout: IC50

Some compounds with known IC50 results, for comparison:
Cc1cc(O[C@H]2c3cc(F)cc(Cl)c3C[C@@H]2N2CCNCC2)ccc1S(C)(=O)=O (racemic) [Example 281] :: < 1000 nM
NS(=O)(=O)c1ccc(OC2c3ccccc3CC2N2CC[C@@H](N3CCCC3)C2)cc1 (mixture of isomers) [Example 463] :: 1000 to 10000 nM
CS(=O)(=O)c1ccc(O[C@H]2c3cc(Cl)cc(Cl)c3C[C@@H]2N2CCC[C@@H](N)C2)cc1 [Example 102] :: < 1000 nM
N#Cc1c(F)cccc1O[C@@H]1c2ccccc2C[C@H]1N1C[C@H]2CNC[C@H]2C1 (racemic) [Example 398] :: 1000 to 10000 nM

Incoming: What IC50 value was documented for this compound, COCCN1CCCN([C@H]2Cc3c(Cl)cc(Cl)cc3[C@@H]2Oc2ccc(-n3c(C)nnc3C)cc2)CC1 [Example 348] ?
Outgoing: < 1000 nM

Incoming: Could you do the same for N#Cc1ccc(O[C@@H]2c3ccccc3C[C@H]2N2CCC[C@@H](N)C2)cc1Cl (racemic) [Example 521] , please?
Outgoing: 1000 to 10000 nM

Incoming: Could you do the same for O=C1OCCN1c1ccc(Cl)c(O[C@H]2c3cc(Cl)cc(Cl)c3C[C@@H]2N2CC[C@@H](O)C2)c1 [Example 434] , please?
Outgoing: < 1000 nM
